system: Staphylococcus sp.; assay: in vitro antibacterial evaluation, MIC by broth dilution; assay type: cell-based; conditions: broth dilution, 18 hours at 35° C.
Numbered stars: 1 amine (or outer) side, 2 acyl side, 3 side chain; on linkers, the order of the positions; unused ones are H or OH. Square brackets hold non-standard residues; d marks the D form. Peptide text beside a SMILES is read from it. * marks the point of attachment. ξ: configuration not given here. X1 = N=C1NCC(C(O)C(N[*:1])C(=O)[*:2])N1C1OC(CO)C(O)C(O)C1O; ξEnduracididine(βξ-OH,4'ξ) = N=C1NCC(C(O)C(N)C(=O)O)N1; X2 = OCC1OC(OC2C(CO)OC(*)C(O)C2O)C(O)C(O)C1O
RECORDED METRIC: MIC Staphylococcus aureus (GC 4542)

[[record]]
compound = "CC(c1ccccc1)C1NC(=O)CNC(=O)C(CO)NC(=O)C(C(O)C2CNC(=N)N2C2OC(CO)C(O)C3OC(C)(C)OC32)NC(=O)C(C(O)C2CNC(=N)N2)NC(=O)C(Cc2ccc(OC3OC(CO)C(OC4OC5COC(C)(C)OC5C5OC(C)(C)OC45)C4OC(C)(C)OC34)cc2)NC1=O (stereo not drawn) [Example 229b]"
recorded_metric = "MIC Staphylococcus aureus (GC 4542)"
val = ">128 µg/mL"

[[record]]
compound = "CC(c1ccccc1)C1NC(=O)CNC(=O)C(CO)NC(=O)C(C(O)C2CNC(=N)N2C2OC(CO)C(O)C(O)C2O)NC(=O)C(C(O)C2CNC(=N)N2)NC(=O)C(Cc2ccc(OC3OC(CO)C(OC4OC(COCc5ccc(OCc6ccccc6)cc5)C(O)C(O)C4O)C(O)C3O)cc2)NC1=O (stereo not drawn)"
recorded_metric = "MIC Staphylococcus aureus (GC 4542)"
val = "2 to 4 µg/mL"

[[record]]
compound = "N=C1NCC(C(O)C2NC(=O)C(Cc3ccc(OC4OC(CO)C(OC5OC(CO)C(O)C(O)C5O)C(O)C4O)cc3)NC(=O)C(Cc3ccccc3)NC(=O)CNC(=O)C(CO)NC(=O)C(C(O)C3CNC(=N)N3C3OC(CO)C(O)C(O)C3O)NC2=O)N1 (stereo not drawn) [Example 282] (cyclo(GFY(X2)[ξEnduracididine(βξ-OH,4'ξ)][X1]S); configuration not given here)"
recorded_metric = "MIC Staphylococcus aureus (GC 4542)"
val = ">128 µg/mL"


meta.source: patent US6914045B2
